Target Of Assay: T1, TNFR1 (Homo sapiens, UniProt P19438)
T1 chain: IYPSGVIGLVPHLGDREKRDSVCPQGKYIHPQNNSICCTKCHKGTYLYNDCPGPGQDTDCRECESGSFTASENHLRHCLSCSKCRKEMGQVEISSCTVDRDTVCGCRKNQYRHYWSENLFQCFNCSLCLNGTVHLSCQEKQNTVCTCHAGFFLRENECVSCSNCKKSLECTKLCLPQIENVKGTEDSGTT
Measurement Description: yeast display SC50
Use 2 nM as the dividing line for apparent Kd (screen), with the line itself on the MET side and lower values as NOT MET.

| Binder | Category Label |
| --- | --- |
| K100E (designed binder) SMEEEVEKAAKEYEKKKKEAIEKHLEKLKAKDKEAAERFLKELEEAAKEYAKDEAKTMSEEEAKRRAKKYKEKVLLSELSEEEQKEIKEAEEKLVRTILEYVEEAAK | NOT MET |
| A106M (designed binder) SMEEEVEKAAKEYEKKKKEAIEKHLEKLKAKDKEAAERFLKELEEAAKEYAKDEAKTMSEEEAKRRAKKYKEKVLLSELSEEEQKEIKEAEEKLVRTILKYVEEAMK | MET |
| H24E (designed binder) SMEEEVEKAAKEYEKKKKEAIEKELEKLKAKDKEAAERFLKELEEAAKEYAKDEAKTMSEEEAKRRAKKYKEKVLLSELSEEEQKEIKEAEEKLVRTILKYVEEAAK | NOT MET |
| K71T (designed binder) SMEEEVEKAAKEYEKKKKEAIEKHLEKLKAKDKEAAERFLKELEEAAKEYAKDEAKTMSEEEAKRRAKKYTEKVLLSELSEEEQKEIKEAEEKLVRTILKYVEEAAK | NOT MET |
| A55Y (designed binder) SMEEEVEKAAKEYEKKKKEAIEKHLEKLKAKDKEAAERFLKELEEAAKEYAKDEYKTMSEEEAKRRAKKYKEKVLLSELSEEEQKEIKEAEEKLVRTILKYVEEAAK | MET |
| R38V (designed binder) SMEEEVEKAAKEYEKKKKEAIEKHLEKLKAKDKEAAEVFLKELEEAAKEYAKDEAKTMSEEEAKRRAKKYKEKVLLSELSEEEQKEIKEAEEKLVRTILKYVEEAAK | MET |
| S1N (designed binder) NMEEEVEKAAKEYEKKKKEAIEKHLEKLKAKDKEAAERFLKELEEAAKEYAKDEAKTMSEEEAKRRAKKYKEKVLLSELSEEEQKEIKEAEEKLVRTILKYVEEAAK | NOT MET |
| A30V (designed binder) SMEEEVEKAAKEYEKKKKEAIEKHLEKLKVKDKEAAERFLKELEEAAKEYAKDEAKTMSEEEAKRRAKKYKEKVLLSELSEEEQKEIKEAEEKLVRTILKYVEEAAK | NOT MET |
